Test: NCI Yeast Anticancer Drug Screen. Data for the cln2 rad14 strain (AID 165)
Conditions: S. cerevisiae cln2 rad14 strain, at 50.0 µM (retest, dose inferred, filed as 5.0)
About 79,000 compounds went through this panel and 15% of them were active in at least one assay; those are over-represented in the sample as a whole. The source made the active and inactive calls. Rule as the data show it: active = growth inhibition above about 70%; inactive = the rest.
The reply should name one outcome from true = active, false = inactive

Examples with answers:
compound	answer_label
O=C(N/C(=C\c1cccc([N+](=O)[O-])c1)c1nc2ccccc2s1)c1ccccc1	true
C/C(=N\NC(=S)Nc1ccc(S(N)(=O)=O)cc1)c1ccccn1	false
O=[N+]([O-])c1ccc2c(Nc3ccccc3-c3ccccc3Nc3c4ccccc4nc4cc([N+](=O)[O-])ccc34)c3ccccc3nc2c1	true
O=C(COC(=O)C(c1ccccc1)c1ccccc1)c1ccc(Br)cc1	false
O=C1OC(c2ccccc2)(c2ccc(-c3ccc(O)cc3)cc2)c2ccccc21 (stereo not given)	true
Clc1ccc(CN2COc3c(cc(Cl)c4cccnc34)C2)c(Cl)c1	true
N=C1C(=O)c2ccccc2-c2ccccc21	true
CC[C@@]1(O)C[C@H](OC2CC(N(C)C)C(OC3CC(O)C(OC4CCC(=O)C(C)O4)C(C)O3)C(C)O2)c2c(cc3c(c2O)C(=O)c2c(O)cccc2C3=O)[C@H]1C(=O)OC (stereo not given in full)	true

### Prompt Could you please tell me the result logged for `COc1cccc2nc3c(C(=O)NCCN(C)C)cccc3cc12` in this assay?
### Response false

### Prompt # lookup: test call for `CC(C)(C)c1cc(C(P(=O)(c2ccccc2)c2ccccc2)P(=O)(c2ccccc2)c2ccccc2)cc(C(C)(C)C)c1O`
### Response true

### Prompt Hey, what did the test say about CC(=O)Oc1ccc(C)c(C(C)C(Cl)(Cl)Cl)c1 (stereo not given) ?
### Response false

# credit: PubChem BioAssay (NCI)
